# Test system: full-length S protein of SARS-CoV-2 (Wuhan variant)
# Assay type: binding
# CONDITION DESCRIPTION: S protein 1 μg/mL coated; peptide incubated 2 h at RT; fluorescence 483 nm excitation/530 nm emission; result in words
ENDPOINT: Binding of FAM-labeled peptide to immobilized full-length S protein

> print(dat)
                                  substance              result
1  EDLFYQSSL [SAP2, short ACE2 peptide, 9 aa, described previously [23]]  reasonable binding
2  STIEEQAKTFLDAFNHAAAALFAQSSLASWNY [P1m, control P1 with alanine substitutions of key amino acids]      failed to bind
3       GKGDFRIL [SAP4, reference compound]      failed to bind
4  EDLFYQ [SAP6, short ACE2 peptide, 6 aa, described previously [23]]  reasonable binding

Recorded Binding of FAM-labeled peptide to immobilized full-length S protein for TFLDKFNHEAEDLFYQ [SAP1, short ACE2 peptide, 16 aa, described previously [23]] , please?
reasonable binding

The values you see were collected from paper PMC10179272.
